Tested on: HCT-116 colon
Test: NCI-60 one-dose screen, 48 h
Conditions: 10 µM unless noted
Compounds without any hit were thinned out: in the full panel of roughly 83,000, 20% have a hit. Activity calls are given as the source filed them. How the source made its calls: active means growth percent below 10; inactive means the rest.
// classify into active, inactive

Observe how each entry below is paired with its result.
COMPOUND | ASSIGNED CATEGORY
CCOC(=O)Nc1ccc(-c2nc(-c3cccc(OCCN4CCOCC4)c3)c(-c3ccnc(Br)c3)[nH]2)cc1 | inactive
CCCC1CCC(O)(C(C)(O)C(=O)NC2C(=O)N3NCCCC3C(=O)N(O)C(C)C(=O)N3NCCCC3C(=O)N3NCC(O)CC3C(=O)NC(C)C(=O)OC2C(C)C)OC1CC (stereo unspecified) | active
O=C(/C=C/c1sc(Cl)nc1Cl)c1ccc(Br)cc1 | inactive
C=C1CC[C@@]2(C#N)[C@H]3[C@H](CC[C@@H]2C)[C@@H](C)C[C@@H](CC(C)(C)C#N)[C@H]13 | inactive
O=CN1N=C(c2ccc(Nc3ccnc4cc(Cl)ccc34)cc2)CC1c1ccccc1 (stereo unspecified) | inactive

Okay, next one:
# lookup: test call for CCN1C(=O)N(CC)C2Nn3c(s/c(=C4\C(=O)N(CCC(C)C)c5ccccc54)c3=O)=NC21 (stereo unspecified)
inactive

###

Test system: SNB-19 CNS
Assay: NCI-60 one-dose screen, 48 h
Conditions: 10 µM unless noted
This is part of a sample that, as a whole, favours compounds with a hit. Of some 83,000 tested, about 20% had one in any assay. The source made the active and inactive calls. How the source made its calls: active means growth percent below 10; inactive means the rest.
Pick one and only one: active, inactive

Reference set, count: 8
RECORD SMILES | ASSIGNED CATEGORY
Cc1ccc(S(=O)(=O)Oc2ccc(NC(=O)c3ccc(Cl)cc3)cc2)cc1 | inactive
Cc1cc(=O)[nH]c(=O)n1Cc1cn(-c2c3ccccc3nc3ccccc23)nn1 | inactive
COc1ccc(-c2csc(NC(=O)N3CCN(c4cc5c(cc4F)c(=O)c(C(=O)O)cn5C4CC4)CC3)n2)cc1 | inactive
COc1ccc2nc(NC(=O)c3cccnc3Nc3ccc(S(N)(=O)=O)cc3)sc2c1 | inactive
Cc1cccc2c1S/C(=C/c1ccc([N+](=O)[O-])cc1)C2=O | inactive
C#Cc1cccc(NC(=O)Nc2ccccc2NC(=O)CCl)c1 | inactive
Cc1ccc2sc3c(NCCN)nc4ccccc4c3c(=O)c2c1 | inactive
Cc1ccc(C(C)C)cc1C(=O)C[n+]1ccccc1 | inactive

Recorded test call requested for O=CN(SSN(C=O)C1CCCCC1)C1CCCCC1
inactive

Test call for this molecule, please: COc1ccc(C(=O)COC(=O)[C@H](C[Se][Se]C[C@H](NC(=O)c2ccc(Br)cc2F)C(=O)OCC(=O)c2ccc(OC)cc2)NC(=O)c2ccc(Br)cc2F)cc1
active

###

System: K-562 leukemia
Assay: NCI-60 one-dose screen, 48 h
Details: 10 µM unless noted
The panel holds about 83,000 compounds, 20% with a hit somewhere; the sample as a whole holds those more often. The source made the active and inactive calls. The calls were made as follows: active = growth percent below 10; inactive = the rest.
Just give me one of these, please: 1.0 = active, 0.0 = inactive

Recorded results for 10 molecules are shown here.
MOLECULE | ASSIGNED CATEGORY
CCN(CC)CCNc1nc2ccccc2c2c(=O)c3cc(Cl)ccc3sc12 | 1.0
C=C1CC[C@H](C(C)C)[C@@H]2[C@H]1[C@H]1CC(=C)[C@@H](O)CC[C@@](C)(O)[C@@H]2O1 | 0.0
Cc1ncc(C(=O)Nc2ccc(CN3CCN(C)CC3)c(C(F)(F)F)c2)cc1C#Cc1ccc(N)nc1 | 1.0
O=[N+]([O-])c1ccc(Oc2nc(Nc3ccc(O[C@H]4CO[C@H]5[C@@H]4OC[C@@H]5O)c(Cl)c3)ncc2F)c(Cl)c1 | 0.0
CCN(CC)Cc1cc(Nc2c3ccc(Cl)cc3nc3ccc(OC)cc23)ccc1O | 1.0
Cc1ccc(-c2nc(N3CCN(C(=O)Nc4ccc(Cl)c(C(F)(F)F)c4)CC3)c3ccccc3n2)cc1 | 0.0
CCOC(=O)C1=C(N)Oc2c(sc3c(C)cccc23)C1c1ccc(F)cc1 (stereo not given) | 1.0
C=CCc1cc(C)ccc1NC(C(=O)NCC(=O)OC)c1ccccc1 (stereo not given) | 0.0
CCOC(=O)c1sc2ncc(-c3ccc(OC)cc3)n2c1C | 0.0
COc1ccc(S(=O)(=O)n2cc(C3OC(c4cc(OC)c(OC)c(OC)c4)=NN3C(C)=O)c3ccccc32)cc1OC (stereo not given) | 0.0

Tell me the assay call for COc1ccc(C2CC(c3ccc(Nc4ccnc5cc(Cl)ccc45)cc3)=NN2C=O)cc1 (stereo not given) please.
0.0

Given O=C(CCc1nnc(-c2c(Cl)cccc2Cl)o1)c1nc2ccccc2[nH]1 , state the outcome it received in this test.
1.0

Per the assay record, what outcome was assigned to O=C1c2ccccc2NC(n2sc3ccccc3c2=O)N1c1ccccc1 (stereo not given) ?
0.0

How was C=C(C)C1CCC2(C)OC2C1 (stereo not given) classified in this test?
0.0

What did the test return for CCOC(=O)c1cn2ncnc(Oc3ccc(NC(=O)NCCN4CCOCC4)c(Cl)c3)c2c1C ?
0.0

###

Tested on: OVCAR-5 ovarian
Assay: NCI-60 one-dose screen, 48 h (100 = growth as untreated, 0 = no growth, -100 = all killed)
Settings: 10 µM unless noted
This is part of a sample that, as a whole, favours compounds with a hit. Of some 83,000 tested, about 20% had one in any assay. Calls of active or inactive are those of the source. The calls were made as follows: active = growth percent below 10; inactive = the rest.
growth values for the molecules below.

MOLECULE | TARGET OR SYSTEM | MEAS VALUE
COc1ccc(-c2nc3sc(-c4ccc(Cl)cc4)cn3n2)cc1 | OVCAR-5 ovarian | 52% (inactive)
O=c1c2cc(F)ccc2sc2c(NCCCNCCO)nc3ccc(F)cc3c12 | OVCAR-5 ovarian | 73.7% (inactive)
FC(F)(F)c1cc(Nc2ccc3c(OCCCN4CCOCC4)cccc3n2)ccc1Cl | OVCAR-5 ovarian | 50.5% (inactive)
O=C(CSc1nc2ccccc2[nH]1)Nc1cccc(Cl)c1 | OVCAR-5 ovarian | 98.7% (inactive)
Oc1c(I)cc(I)cc1CNCCCN(Cc1ccccn1)Cc1ccccn1 | OVCAR-5 ovarian | -44.9% (active)
CCCCN(C)N=Nc1ccc(C(N)=O)cc1 | OVCAR-5 ovarian | 99.2% (inactive)

Query (molecule): O=c1c2cc(F)ccc2sc2c(NCCCNCCO)nc3ccccc3c12 ; field requested: growth
63.4% (inactive)

Recorded growth of c1ccc2c(-c3nc(-c4c[nH]c5ccncc45)cs3)c[nH]c2c1 , please.
70.8% (inactive)

Entry COc1ccccc1/C=C1\Oc2cc(OCCN3CCC(Cc4ccccc4)CC3)ccc2C1=O : reported growth = ?
89.3% (inactive)

Request the reported growth associated with CCC(C)(c1cc(C(C)(C)C)c(O)c(C(C)(C)C)c1)c1cc(C(C)(C)C)c(O)c(C(C)(C)C)c1
94.5% (inactive)

I have this molecule here, O=C(Cc1ccc(F)c(Cl)c1)Nc1cc(C2(C(F)(F)F)CC2)nn1Cc1ccccc1 , and I need its recorded growth.
91.4% (inactive)

Name the recorded growth for O=CN1N=C(c2ccc(Nc3ccnc4cc(Cl)ccc34)cc2)CC1c1ccccc1 (configuration not stated) .
84.1% (inactive)

Endpoint output: growth of CC(C)OC(=O)Nc1ccc(-c2nc(-c3cccc(OCCN4CCOCC4)c3)c(-c3ccnc(Br)c3)[nH]2)cc1 . Value?
55.6% (inactive)

Please give the measured growth for this molecule: O=C(Nn1c(NCC(=O)N2c3ccccc3Sc3ccccc32)nnc1-c1ccc(O)cc1)c1ccccc1
90.4% (inactive)

Item COc1cccc(-c2nc(-c3ccc(NC(=O)OC(C)C)cc3)[nH]c2-c2ccnc(Br)c2)c1 has what recorded growth?
53.7% (inactive)

Given the molecule COc1cc(/C=C/c2c(C(C)=O)c(C)nc3ccccc23)cc(OC)c1OC , what is its reported growth?
61.3% (inactive)

growth for COC(=O)c1ccc2[nH]c(O)c(C(=Nc3ccc(N(C)C(=O)CN4CCN(C)CC4)cc3)c3ccccc3)c2c1 ?
57.2% (inactive)

###

Test system: OVCAR-3 ovarian
Test: NCI-60 one-dose screen, 48 h (100 = growth as untreated, 0 = no growth, -100 = all killed)
Details: 10 µM unless noted
Compounds without any hit were thinned out: in the full panel of roughly 83,000, 20% have a hit.
ASSAY ENDPOINT: growth (%)
Enter your answer as a number in %; do not include the unit.

Given the entry C=C(C)C1CCC2(C)OC2C1 (configuration not stated) , report its measured growth.
123

###

// values below are reported growth
System: HOP-92 NSCLC
Assay: NCI-60 one-dose screen, 48 h (100 = growth as untreated, 0 = no growth, -100 = all killed)
Conditions: 10 µM unless noted
The panel holds about 83,000 compounds, 20% with a hit somewhere; the sample as a whole holds those more often.
Answer in %, number only, no unit symbol.

COMPOUND | ASSAY ENDPOINT | MEAS VALUE
CN(C)CCCNc1nc2ccccc2c2c(=O)c3cc(F)ccc3sc12 | growth | 24
COc1ccc(N2C(=O)C(Oc3ccccc3)C2c2ccc(C)cc2)cc1 (configuration not stated) | growth | 66.8
CS(=O)(=O)Nc1cc(-c2ccc3ncnc(Nc4cccc(Cl)c4F)c3c2)cnc1Cl | growth | 13.3
c1ccc2c(-c3nc(-c4c[nH]c5ccncc45)cs3)c[nH]c2c1 | growth | 49.2
CC(C)n1cnc2c(Nc3cccc(Cl)c3)nc(N[C@H]3CCCC[C@@H]3N)nc21 | growth | 26.8
CN1CCN(Cc2ccc(NC(=O)c3ccc(C(C)(C)C)c(C#Cc4cnc5cccnn45)c3)cc2C(F)(F)F)CC1 | growth | 23.9
C/C=C(\C)C(=O)N[C@H]1[C@@H](OC(C)=O)C[C@]2(C)C3CC[C@@]4(C)C(CC[C@@H]4C(C)N(C)C)C3CCC2[C@H]1O (some centres not stated) | growth | 71
COc1ccccc1/C=C1\Oc2cc(OCCN3CCC(Cc4ccccc4)CC3)ccc2C1=O | growth | 57.8
O=C1NC(=O)C(Cn2cnc3ccccc32)N1 (configuration not stated) | growth | 97.4
CCOc1cccc(NC2=C(Br)C(=O)C(C)=C(C)C2=O)c1 | growth | -8.14

Please look up its growth: CC(=O)N1CCN(c2ccc(OCC3CO[C@](Cn4ccnc4)(c4ccc(Cl)cc4Cl)O3)cc2)CC1 (some centres not stated)
61.4

Which growth value is on record for NC1=NC(c2cccc(Br)c2)c2sc3ccc(Cl)cc3c2N1 (configuration not stated) ?
96.7
